- measurement_protocol: Complete pharmacokinetic analysis after a single oral dose
- conditions: single oral dose, 24 h
measured_attribute: plasma concentration of released AcINH (mean)

1. NNC(=O)c1ccncc1 [INH, Isoniazid, reference compound]
BLQ
2. Cl.O=C(NNC(=O)c1ccncc1)OCc1ccccc1 [prodrug 1h]
BLQ
3. COC(=O)NNC(=O)c1ccncc1.Cl [prodrug 1a]
BLQ
4. CC(C)OC(=O)NNC(=O)c1ccncc1.Cl [prodrug 1d]
BLQ

* * *

- measurement_protocol: Comparative pharmacokinetic analysis after a single intravenous dose
- conditions: Balb/C, mouse, plasma, iv, 1 mg/kg
measured_attribute: Tmax (min)

1) CC(C)OC(=O)NNC(=O)c1ccncc1.Cl [prodrug 1d]
4.8

* * *

- measurement_protocol: Comparative plasma exposure after a single oral dose at three incremental dose levels
- conditions: Balb/C, mouse, plasma, po, 10 mg/kg
measured_attribute: concentration at 2 h (µg/mL)

1) CC(C)OC(=O)NNC(=O)c1ccncc1.Cl [prodrug 1d]
2.03

* * *

- measurement_protocol: Complete pharmacokinetic analysis after a single oral dose
- conditions: single oral dose, 6 h
measured_attribute: plasma concentration of released INA (mean)

1) CC(C)OC(=O)NNC(=O)c1ccncc1.Cl [prodrug 1d]
BLQ
2) COC(=O)NNC(=O)c1ccncc1.Cl [prodrug 1a]
BLQ
3) NNC(=O)c1ccncc1 [INH, Isoniazid, reference compound]
BLQ
4) Cl.O=C(NNC(=O)c1ccncc1)OCc1ccccc1 [prodrug 1h]
BLQ

* * *

- measurement_protocol: Aqueous stability in acidic and basic buffer (HPLC)
- conditions: acidic buffer, post 24 h of incubation
measured_attribute: chemical stability, pH (3.0): percentage of parent remaining (%)

1. CCC(C)OC(=O)NNC(=O)c1ccncc1.Cl (centres unmarked) [prodrug 1i]
100.0
2. CC(C)COC(=O)NNC(=O)c1ccncc1.Cl [prodrug 1f]
98.17
3. COC(=O)NNC(=O)c1ccncc1.Cl [prodrug 1a]
100.0
4. CCCCOC(=O)NNC(=O)c1ccncc1.Cl [prodrug 1e]
100.0
5. Cl.O=C(NNC(=O)c1ccncc1)Oc1ccccc1 [prodrug 1j]
94.6
6. C=CCOC(=O)NNC(=O)c1ccncc1.Cl [prodrug 1g]
96.9
7. Cl.O=C(NNC(=O)c1ccncc1)OCc1ccccc1 [prodrug 1h]
100.0
8. NNC(=O)c1ccncc1 [INH, Isoniazid, reference compound]
100.0

* * *

- measurement_protocol: In vivo plasma exposure after a single oral dose (RACE-PK)
- conditions: single oral dose 10 mg/kg, n=3
measured_attribute: plasma eAUC20m–120m (AcINH)

1) CCCOC(=O)NNC(=O)c1ccncc1.Cl [prodrug 1c]
BLQ ^d
2) Cl.O=C(NNC(=O)c1ccncc1)Oc1ccccc1 [prodrug 1j]
BLQ ^d
3) CCOC(=O)NNC(=O)c1ccncc1.Cl [prodrug 1b]
BLQ ^d
4) COC(=O)NNC(=O)c1ccncc1.Cl [prodrug 1a]
BLQ ^d

* * *

- measurement_protocol: Aqueous stability in acidic and basic buffer (HPLC)
- conditions: basic buffer, post 24 h of incubation
Listed here are compounds together with their documented chemical stability, pH (7.6): percentage of parent remaining.
measured_attribute: chemical stability, pH (7.6): percentage of parent remaining (%)

1. CC(C)OC(=O)NNC(=O)c1ccncc1.Cl [prodrug 1d]
100.0
2. CC(C)COC(=O)NNC(=O)c1ccncc1.Cl [prodrug 1f]
100.0
3. C=CCOC(=O)NNC(=O)c1ccncc1.Cl [prodrug 1g]
100.0
4. CCCOC(=O)NNC(=O)c1ccncc1.Cl [prodrug 1c]
100.0
5. Cl.O=C(NNC(=O)c1ccncc1)OCc1ccccc1 [prodrug 1h]
100.0
6. CCC(C)OC(=O)NNC(=O)c1ccncc1.Cl (centres unmarked) [prodrug 1i]
98.3
7. NNC(=O)c1ccncc1 [INH, Isoniazid, reference compound]
100.0
8. CCCCOC(=O)NNC(=O)c1ccncc1.Cl [prodrug 1e]
100.0
9. Cl.O=C(NNC(=O)c1ccncc1)Oc1ccccc1 [prodrug 1j]
58.2
10. COC(=O)NNC(=O)c1ccncc1.Cl [prodrug 1a]
100.0
11. CCOC(=O)NNC(=O)c1ccncc1.Cl [prodrug 1b]
100.0

Cited source: paper PMC12395308
